Test system: HS 578T breast
protocol_summary: NCI-60 one-dose screen, 48 h (100 = growth as untreated, 0 = no growth, -100 = all killed)
condition_description: 10 µM unless noted
About 83,000 compounds went through this panel and 20% of them were active in at least one assay; those are over-represented in the sample as a whole.
Could you please report measured growth for the items listed next?
Numbers only, in %.

Please review the entries below; each comes with its answer.
compound: O=C(CCc1nnc2sc(-c3ccccc3)nn12)c1nc2ccccc2[nH]1
measurement_target: HS 578T breast
growth (%): 102

compound: COc1cc(/C=C2\C(=O)N(c3c(Cl)cccc3Cl)c3ccccc32)cc(OC)c1O
measurement_target: HS 578T breast
growth (%): 39.8

compound: Nc1nc(-c2ccnc(Cl)c2)nn1-c1nc2ccccc2s1
measurement_target: HS 578T breast
growth (%): 96.8

compound: COc1ccc(-n2ncc3c4nc(OC)c(S(=O)(=O)c5ccccc5)cc4ccc32)cc1
measurement_target: HS 578T breast
growth (%): 43.5

compound: CS(=O)(=O)Nc1cccc(C(=O)NCc2ccc(N3CCOCC3)cc2)c1
measurement_target: HS 578T breast
growth (%): 104

compound: COc1cc(CNCCN2C(=O)c3ccc4c5c(ccc(c35)C2=O)C(=O)N(CCNCc2cc(OC)c(OC)c(OC)c2)C4=O)cc(OC)c1OC
measurement_target: HS 578T breast
growth (%): -60.7

compound: CCCC1=NNC(=O)C1
measurement_target: HS 578T breast
growth (%): 110

compound: CCN(c1ccc(C(=O)N2CCN(c3ccccc3)CC2)cc1)S(C)(=O)=O
measurement_target: HS 578T breast
growth (%): 105

compound: COc1ccc(NC(=O)c2ccc3c(c2)nc(-c2ccc(Cl)cc2)n3-c2cc(C(C)(C)C)[nH]n2)cc1
measurement_target: HS 578T breast
growth (%): 62

compound: CC(=O)N(CC(O)CO)c1c(I)c(C(=O)NCCO)c(I)c(C(=O)NCC(O)CO)c1I (centres undefined)
measurement_target: HS 578T breast
growth (%): 116

Please go through the list and note growth for each compound.
1. COc1ccc(S(=O)(=O)c2ccc(C(N)=O)cc2)cc1NC(=O)c1[nH]c(C)c2c1CCCCC2=O
2. Cc1nc2cc(Nc3nc(Nc4ccc(F)cc4)nc(N4CCN(C)CC4)n3)ccc2n1Cc1ccccc1
3. O=C1C(Br)=C(c2ccccc2)C(=O)C(Br)=C1c1ccccc1

Output:
-2.07
-19.4
97.2

Please go through the list and note growth for each compound.
1. CCOC(=O)C(CC(c1ccccc1)N1CCCCC1)[N+](=O)[O-] (centres undefined)
2. COc1ccc(C2=NOC(CC(=O)N(CCO)CCO)C2)cc1OC1CCCC1 (centres undefined)
3. COc1ccc(C(=O)C2=CC(=O)C(=O)C2)cc1OC
4. O=C1CCC(N2C(=O)c3cccc(NCCOCCOCCNC(=O)c4cc5c(o4)C(=O)c4ccccc4C5=O)c3C2=O)C(=O)N1 (centres undefined)
5. CCC12CCC3c4ccc(O)cc4CCC3C1CC(O)C2O (centres undefined)

Output:
[98.6, 99.2, 110, -29.7, 76.8]

Please go through the list and note growth for each compound.
1. COc1nc2c(cc1S(=O)(=O)c1ccccc1)CCc1c-2cnn1-c1cccc(Cl)c1
2. O=S(=O)(Nc1ccc(Cl)c(Cl)c1)c1ccc(-c2cnc(C3CC3)o2)cc1
3. COc1ccc2c(c1)c(=O)oc1c(C)c(OCC(C)=O)ccc12
4. O=C1CN2CCC1C/C2=C\c1ccnc2c(Cl)cccc12 (centres undefined)

Output:
[102, -18.5, 33.6, 219]

Please go through the list and note growth for each compound.
1. C1CCC([PH+](C2CCCCC2)C2CCCCC2[PH+](C2CCCCC2)C2CCCCC2)CC1.O=C(C1[CH-]CCCC1)C1CCCC[N-]1.[Au] (centres undefined)
2. O=S(=O)(OCCO)c1ccccc1

Output:
1. 13.8
2. 108

Origin of the recorded values: PubChem BioAssay (NCI)
